test system: NCI-H1299; assay: relative viability (nuclei count vs DMSO), 5 days (fraction); higher = more cells survive; details: first compound 0.1 µM
measurement.kind: relative viability

[
  {
    "molecule": "O=c1cc(N2CCOCC2)oc2c(-c3cccc4c3sc3ccccc34)cccc12 + CC(C)C[C@H](NC(=O)[C@H](Cc1ccccc1)NC(=O)c1cnccn1)B(O)O [Bortezomib] (partner 0.002 µM)",
    "result": 0.984
  },
  {
    "molecule": "CCN(CC)CCCCNc1ncc2cc(-c3cc(OC)cc(OC)c3)c(NC(=O)NC(C)(C)C)nc2n1 + CC1(C)CCC(c2ccc(Cl)cc2)=C(CN2CCN(c3ccc(C(=O)NS(=O)(=O)c4ccc(N[C@H](CCN5CCOCC5)CSc5ccccc5)c(S(=O)(=O)C(F)(F)F)c4)cc3)CC2)C1 [Navitoclax] (partner 0.5 µM)",
    "result": 1.08
  },
  {
    "molecule": "O=c1cc(N2CCOCC2)oc2c(-c3cccc4c3sc3ccccc34)cccc12 + C[C@]1(O)C[C@@H](c2nc(-c3ccc4ccc(-c5ccccc5)nc4c3)c3c(N)nccn32)C1 [Linsitinib] (partner 1 µM)",
    "result": 0.945
  },
  {
    "molecule": "CCN(CC)CCCCNc1ncc2cc(-c3cc(OC)cc(OC)c3)c(NC(=O)NC(C)(C)C)nc2n1 + O=C(c1cc(Cc2n[nH]c(=O)c3ccccc23)ccc1F)N1CCN(C(=O)C2CC2)CC1 [Olaparib] (partner 8 µM)",
    "result": 1.01
  }
]

Values were extracted from the supplement of paper PMC10307832.
